Test system: K12877-001-R-J1-PDC complex spheroid viability;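 further: tumour cells co-cultured with HUVEC and mesenchymal stem cells in spheroids; spheroids exposed to agents for one week before readout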
Assay: Anticancer human tumor K12877-001-R-J1-PDC patient-derived lung adenocarcinoma cell line growth inhibition [RAS]; active means viability on the fitted dose curve at most 10% of control; inactive means the rest
Conditions: second compound 0.000949 µM; first compound 0.316 µM
Classes used: YES for active, NO for inactive

[[record]]
compound = "CCC(CC)c1cc(NC2CCC(N)C2)n2nccc2n1 (centres undefined) + CCn1c(-c2cccnc2C(C)OC)c2c3cc(ccc31)N1CCOC(CC(NC(=O)C(C(C)C)N(C)C(=O)C3(F)CCN(C(=O)C#CC(C)(C)N(C)C)CC3)C(=O)N3CCCC(N3)C(=O)OCC(C)(C)C2)C1"
assigned_label = "NO"

[[record]]
compound = "CC(=O)OC12COC1CC(O)C1(C)C(=O)C(O)C3=C(C)C(OC(=O)C(O)C(NC(=O)OC(C)(C)C)c4ccccc4)CC(O)(C(OC(=O)c4ccccc4)C21)C3(C)C (centres undefined) + CCn1c(-c2cc(N3CCN(C)CC3)cnc2C(C)OC)c2c3cc(ccc31)-c1csc(n1)CC(NC(=O)C1CC1C)C(=O)N1CCCC(N1)C(=O)OCC(C)(C)C2"
assigned_label = "YES"

[[record]]
compound = "C[C@@H](NC(=O)c1ncnc(N)c1Cl)c1ncc(C(=O)Nc2cc(C(F)(F)F)c(Cl)cn2)s1 + CCn1c(-c2cc(N3CCN(C)CC3)cnc2C(C)OC)c2c3cc(ccc31)-c1csc(n1)CC(NC(=O)C1CC1C)C(=O)N1CCCC(N1)C(=O)OCC(C)(C)C2"
assigned_label = "NO"

[[record]]
compound = "C[C@@H](NC(=O)c1ncnc(N)c1Cl)c1ncc(C(=O)Nc2cc(C(F)(F)F)c(Cl)cn2)s1 + CCn1c(-c2cccnc2C(C)OC)c2c3cc(ccc31)N1CCOC(CC(NC(=O)C(C(C)C)N(C)C(=O)C3(F)CCN(C(=O)C#CC(C)(C)N(C)C)CC3)C(=O)N3CCCC(N3)C(=O)OCC(C)(C)C2)C1"
assigned_label = "NO"

